Molecular target: recombinant human Meningioma Expressed Antigen 5 (MGEA5), also referred to as O-GlcNAcase (OGA) (Homo sapiens)
Construct: Full length OGA enzyme was purchased at OnGene (cat #TP322411); purchased OnGene (so in the source)
Test: OGA biochemical assay (inhibition of FM-GlcNAc hydrolysis, fluorescence)
Conditions: maximal effect, read-out: Enzymatic Emax (%)
Recorded metric: Emax (%)

| Molecule | Output unit | Experimental result |
| --- | --- | --- |
| Cc1cc(C[C@H]2CCCN(C(C)c3ccc4c(n3)OCCO4)C2)cc(OC(F)(F)F)n1 (mixture of isomers) | % | 102 |
| Cc1cc(OC[C@H]2CCCN(C(C)c3ccc4c(n3)OCCO4)C2)cc(C)n1 (single isomer, unassigned) [Product 139] | % | 98 |
| Cc1cc(NCC2CCCN(C(C)c3ccc4c(c3)OCC4)C2)cc(C(F)(F)F)n1 (centres unmarked) | % | 101 |
| Cc1cc([C@@H]2CCCN([C@@H](C)c3ccc4c(n3)OCCO4)C2)cc(C)n1 (single isomer, unassigned) | % | 79 |
| Cc1cc(C[C@H]2CCCN(Cc3ccc4c(c3)OCCN4C)C2)cc(C)n1 | % | 93 |

###

Target: recombinant human Meningioma Expressed Antigen 5 (MGEA5), also referred to as O-GlcNAcase (OGA) (Homo sapiens, UniProt O60502)
Construct: Full length OGA enzyme was purchased at OnGene (cat #TP322411); purchased OnGene (so in the source)
Sequence (O60502 1-916): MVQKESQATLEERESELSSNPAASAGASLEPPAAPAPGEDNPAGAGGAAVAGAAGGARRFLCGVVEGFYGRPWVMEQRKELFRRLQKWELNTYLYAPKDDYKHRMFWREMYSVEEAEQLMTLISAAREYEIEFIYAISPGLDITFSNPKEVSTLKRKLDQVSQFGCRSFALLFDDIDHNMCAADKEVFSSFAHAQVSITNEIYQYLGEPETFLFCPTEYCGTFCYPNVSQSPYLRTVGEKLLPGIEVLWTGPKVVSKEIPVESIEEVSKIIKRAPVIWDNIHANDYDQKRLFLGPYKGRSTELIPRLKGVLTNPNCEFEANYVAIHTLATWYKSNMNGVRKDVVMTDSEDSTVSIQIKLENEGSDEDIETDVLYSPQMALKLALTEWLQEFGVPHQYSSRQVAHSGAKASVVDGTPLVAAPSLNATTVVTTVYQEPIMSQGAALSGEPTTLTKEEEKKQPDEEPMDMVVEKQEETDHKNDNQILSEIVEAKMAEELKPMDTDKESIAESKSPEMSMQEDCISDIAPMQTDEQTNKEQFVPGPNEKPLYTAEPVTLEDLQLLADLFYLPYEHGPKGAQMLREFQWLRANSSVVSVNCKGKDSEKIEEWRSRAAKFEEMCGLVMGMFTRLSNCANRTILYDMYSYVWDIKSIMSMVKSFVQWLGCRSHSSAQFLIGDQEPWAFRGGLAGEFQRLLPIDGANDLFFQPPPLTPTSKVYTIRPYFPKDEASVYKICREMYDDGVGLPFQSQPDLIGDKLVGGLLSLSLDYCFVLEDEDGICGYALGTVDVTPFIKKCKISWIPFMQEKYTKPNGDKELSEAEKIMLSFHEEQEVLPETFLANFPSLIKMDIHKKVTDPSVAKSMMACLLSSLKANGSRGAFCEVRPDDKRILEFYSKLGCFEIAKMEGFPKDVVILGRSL
Experiment: OGA biochemical assay (inhibition of FM-GlcNAc hydrolysis, fluorescence)
Details: read-out: Enzymatic hOGA, pIC50 (converted)
Recorded metric: IC50 (nM)

| Compound | IC50 / nM |
| --- | --- |
| COc1cc(NCC2CCCN(C(C)c3ccc4c(n3)OCCO4)C2)cc(C)n1 (centres unmarked) [Product 23] | 10 |

(P) COc1cc(C2CCCN(C(C)c3ccc4c(n3)OCCO4)C2)cc(C)n1 (centres unmarked) [Product 7]
(Q) Cc1cc(OC[C@@H]2CCCN(C(C)c3cnc4c(c3)OCCN4)C2)cc(C)n1 (some centres unmarked) [Product 145]
(R) Cc1cc(C[C@H]2CCCN([C@@H](C)c3cnc4c(c3)OCCO4)C2)cc(C)n1 (single isomer, unassigned) [Product 131]
(S) COc1cc(NC[C@H]2CCCN(C(C)c3nc4c(cc3F)OCCO4)C2)cc(C)n1 (some centres unmarked) [Product 182]
**Q:** Arrange items by their IC50 values in increasing order. State the ranking by listing the labels in the requested order.
**A:** S, P, Q, R
